src = patent US20190054103A1

test-protocol: in vivo
measurement-setup: nude, mouse, iv
readout-type: MTD at 3 weeks

# input So what's the measured MTD at 3 weeks for this one? Nc1ncn([C@@H]2O[C@H](CO)[C@@H](O)C2(F)F)c(=O)n1 [NUC013]
# output > 120 mg/kg
